- MEASUREMENT_PROTOCOL: NCI Yeast Anticancer Drug Screen. Data for the rad50 strain (AID 155);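 also: 0% = growth of vehicle-only cultures of the same strain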
- ASSAY_CONTEXT: S. cerevisiae rad50 strain growth inhibition; at 5.0 µM (retest, dose inferred, filed as 0.5); active compounds read high
This is part of a sample that, as a whole, favours compounds with a hit. Of some 79,000 tested, about 15% had one in any assay.
Recorded growth inhibition, one value per entry.
VALUE_KIND: growth inhibition (%)

CC(C)CCCC(C)C1CCC2(C)C3=CCC4C(C)(CCC(O)C4(C)C)C3=CCC12C (configuration not stated)	0
Nc1ccc2nnnn2c1	0
NSc1ccccn1	7
O=c1ccnc(Nc2ccc[nH]c2=S)[nH]1	-2
CCN(CC)c1cc(Nc2c3ccc(Cl)cc3nc3cc(Cl)ccc23)ccc1O	1
O=C(O)/C=C/CCC1SCC2NC(=O)NC21 (configuration not stated)	96
[O-][n+]1ccc(Br)c(/C=C/c2ccccc2)c1	0
COc1ccc(/C(=N\Nc2ccc(Br)cc2)c2ccccc2/C(=N/Nc2ccc(Br)cc2)c2ccccc2OC)cc1	1
CCCCCC(CN(C)C)C(O)/C=C\c1ccccc1 (configuration not stated)	0
CN(Nc1ccc(Cl)cc1)c1ccc(Cl)cc1	1
COc1ccccc1C1c2cc3c(cc2OC(C)(O)C1C)OCO3 (configuration not stated)	-5
CC(=O)NC1CCCCC1CC1CCCCC1 (configuration not stated)	-146

Cited source for all entries: PubChem BioAssay (NCI)
